conditions: 313.15 K; 101.33 kPa; Liquid; Concentric cylinders viscometry
Recorded viscosity for the following compounds
Express your answer in mPa·s, writing the number without its unit.

Worked examples, 3 compounds total:
| compound | unit-tag | viscosity |
| --- | --- | --- |
| CCCCCCCCCCn1cc[n+](CCC#N)c1.[Br-] [3-(2-cyanoethyl)-1-decyl-1H-imidazolium bromide] | mPa·s | 16702 |
| CCCCn1cc[n+](CCC#N)c1.[Br-] [1-butyl-3-(2-cyanoethyl)-1H-imidazolium bromide] | mPa·s | 4502.1 |
| CCCCCCCCn1cc[n+](CCC#N)c1.[Br-] [3-(2-cyanoethyl)-1-octyl-1H-imidazolium bromide] | mPa·s | 13044 |

Now take the following compound into account.
Challenge: // fetch viscosity given entry CCCCCCn1cc[n+](CCC#N)c1.[Br-] [3-(2-cyanoethyl)-1-hexyl-1H-imidazolium bromide]
Response given: 5610.4
